Tested on: COLO 205 colon
EXPERIMENTAL DETAILS: NCI tumour cell line growth inhibition, 48 h
Entries and their TGI values follow.
QUANTITY: TGI (µM)

- O=C(c1ccc2ccccc2c1)N(Cc1cccnc1)C(=S)N(Cc1cccnc1)C(=O)c1ccc2ccccc2c1: 75.1
- CC[C@H](Nc1nc(N)nc(C)c1C#N)c1nc2cccc(NCc3ccc(C(=O)NO)cc3)c2c(=O)n1-c1ccccc1: 5.31
- COc1ccc2c(c1)c1c(n2CCN(C)C)-c2cccc(OC)c2CC1: 27.7

----------
TGI: recorded values
Test system: CCRF-CEM leukemia
EXPERIMENTAL DETAILS: NCI tumour cell line growth inhibition, 48 h
QUANTITY: TGI

- C1C[S][Ge]2([S]CCO1)[S]CCOCC[S]2: > 100 µM
- O=C(CF)N(O)c1ccc(/C=C/c2ccccc2)cc1: > 100 µM
- Cc1nn(C(=O)c2ccc(Cl)cc2)c2c1C(c1cccc([N+](=O)[O-])c1)SC(N)=N2 (stereo not drawn): > 10 µM
- c1ccc(C2SCc3nc4cc5ccccc5cc4n32)cc1 (stereo not drawn): > 100 µM
- O=c1ssc(Cl)c1Nc1c(Cl)ssc1=O: > 23.5 µM
- N#Cc1ccc(N2Cc3ccccc3OC3=C2C(=O)c2c(O)ccc(O)c2C3=O)cc1: 0.391 µM
- Cc1c(-c2nnc(-c3ccc(Cl)cc3)o2)c(=O)n(-c2ccccc2)n1C: > 100 µM
- CN1CCN(Cc2ccc(NC(=O)c3cncc(C#Cc4cncc5ncccc45)c3)cc2C(F)(F)F)CC1: 34.8 µM
- O=C(Nc1ccc(CN2CCOCC2)cc1)c1[nH]ncc1Nc1ncnc2sccc12: 27.7 µM
- Cc1cnc(/C=N\NC(N)=S)c2cccc(N)c12: > 24 µM
- Cc1noc(C)c1-c1cc(O)cc(C(O)c2ccccc2)c1 (stereo not drawn): > 100 µM
- NNC(=S)N/N=C(/C(=O)Nc1cc(Cl)ccc1Cl)C1C(=O)Nc2ccccc2S1=O (stereo not drawn): > 100 µM
- CC(=O)c1c(C)n(C)c2c1nnc1ccccc12: > 100 µM
- CCCC[N+](CCCC)=c1ccc2nc3c(C)cc(N(CC)CC)cc3sc-2c1: 3.42 µM
- Cc1ccc(Nc2n[nH]c(=S)s2)cc1: > 100 µM
- O=C(O)c1ccc(-c2nc3ccc(Cl)cc3[nH]2)cc1: > 100 µM
- COC(=O)c1ccc(NC(=O)Nc2ccc3oc(=O)c4ccccc4c3c2)cc1: 21.7 µM
- C/C(=N\Oc1cc(Cl)ncn1)c1ccccn1: > 100 µM
- O=C1C(C(c2ccccc2)N2CCOCC2)=C(O)C(c2ccccc2)N1c1ccccc1 (stereo not drawn): > 10 µM
- CC(C)(C)c1[nH]cnc1/C=c1\[nH]c(=O)/c(=C/c2ccccc2)[nH]c1=O: > 68.4 µM
- CNC(=O)c1ccc2cc(C3(O)CCn4cncc43)ccc2c1 (stereo not drawn): > 100 µM
- N/C(=N\N=C\c1c[nH]c2cc(C(F)(F)F)ccc2c1=O)NO: > 10 µM
- C=CCn1c(C23CC4CC(CC(C4)C2)C3)n[nH]c1=S: > 100 µM
- ClCCN1CCOC1=Nc1ccc2c(c1)CCCC2: 35.7 µM
- COC(=O)C1C(OC(=O)C(Cl)(c2ccccc2)c2ccccc2)CC2CCC1N2C (stereo not drawn): > 100 µM
- CN[C@@H](C)[C@@H](N)c1ccccc1: > 100 µM
- Nc1ccc(N=Nc2ccc(-c3ccc(O)cc3)cc2)c2ccc(S(=O)(=O)O)cc12: > 100 µM
- CC(=O)c1cc2c(cc1Nc1c3ccccc3nc3occ(Cl)c13)OCO2: 0.291 µM
- C=CC[P+](c1ccccc1)(c1ccccc1)c1ccccc1: > 100 µM
- COc1cc(C=C2N=C(c3ccccc3)N(n3c(-c4ccccc4)nc4ccccc4c3=O)C2=O)cc(OC)c1OC: > 100 µM
- C/C(=C\C1=C(Cl)C(=O)c2ccccc2C1=O)C(=O)O: 46.2 µM
- COc1cnc2c(c1)C(=O)c1c-2n(CCCN2CCC(O)CC2)c(=O)c2cc(F)ccc12: 1.95 µM
- CO/N=C(/C(=O)N(C(=O)/C(=N/OC)c1csc(NC(c2ccccc2)(c2ccccc2)c2ccccc2)n1)n1cnn(CC(=O)OC(C)(C)C)c1=O)c1csc(NC(c2ccccc2)(c2ccccc2)c2ccccc2)n1: > 10 µM
- O=c1oc2ccccc2c(O)c1C1c2c(c3ccccc3oc2=O)Oc2c1c(=O)oc1ccccc21: > 100 µM
- CCOP(=O)(OCC)C(N)Cc1ccc(OC)c(OC)c1 (stereo not drawn): > 100 µM
- NCCCCN(CCCN)C(=O)c1ccccc1: > 100 µM
- O=c1cc(N2CCNCC2)oc2c(-c3ccccc3)cccc12: 69.5 µM
- CCCCOC(=O)NC(Nc1ccc(S(=O)(=O)Nc2ccc(OC)nn2)cc1)(C(F)(F)F)C(F)(F)F: > 100 µM

Source of measurements: PubChem BioAssay (NCI)
